Data credit: patent EP4671273A1

The following binders are shown together with reported koff values.
Target: T1, human PD-1 (#PD1-H82E4, AcroBiosystems) (human, UniProt Q15116 25-167)
T1 construct: bought
T1 sequence (Q15116 25-167 limits assumed): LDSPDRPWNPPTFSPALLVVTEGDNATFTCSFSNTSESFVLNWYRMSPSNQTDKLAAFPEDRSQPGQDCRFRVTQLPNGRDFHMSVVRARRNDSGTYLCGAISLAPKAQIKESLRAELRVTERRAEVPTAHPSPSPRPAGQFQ
Test: SPR, PD-1 on captured IgG1
Please respond with the number in s⁻¹ and leave the unit unwritten.

Examples from the recorded data:
binder: YCF391 (antibody, human IgG1, V domains shown, human IgG1) VH: VQLVQSGAEVKKPGASVKVSCKASGYTFTNFYIHWVRQAPGQGLEWMGSTYPNYGITAYNQKFKDRVTMTVDTSTSTAYMELRSLRSDDTAVYYCARGYSYAMDYWGQGTTVTVSS VL: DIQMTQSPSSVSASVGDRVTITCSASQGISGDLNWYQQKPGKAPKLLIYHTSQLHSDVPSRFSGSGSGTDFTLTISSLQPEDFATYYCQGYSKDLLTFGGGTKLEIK
unit of measure: s⁻¹
koff: 0.000336
//
binder: OKM590 (antibody, human IgG1, V domains shown, human IgG1) VH: VQLVQSGAEVKKPGASVKVSCKASGYTFTNFYIHWVRQAPGQGLEWMGSIYPNYGITAYNQKFKDRVTMTVDTSTSTAYMELRSLRSDDTAVYYCARGYSYAMDVWGQGTTVTVSS VL: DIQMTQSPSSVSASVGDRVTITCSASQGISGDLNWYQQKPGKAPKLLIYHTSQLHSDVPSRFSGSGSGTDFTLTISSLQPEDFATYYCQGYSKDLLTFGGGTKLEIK
unit of measure: s⁻¹
koff: 0.00039
//
binder: PEV057 (antibody, human IgG1, V domains shown, human IgG1) VH: VQLVQSGAEVKKPGASVKVSCKASGYTFTNFYIHWVRQAPGQGLEWMGSIYPNYGITAYNQKFKDRVTMTVDTSTSTAYMELRSLRSDDTATYYCARGYSYAMDYWGQGTTVTVSS VL: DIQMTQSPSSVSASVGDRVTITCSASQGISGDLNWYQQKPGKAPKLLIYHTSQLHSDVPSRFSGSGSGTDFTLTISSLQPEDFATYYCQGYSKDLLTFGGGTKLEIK
unit of measure: s⁻¹
koff: 0.000189
//
binder: ZTD928 (antibody, human IgG1, V domains shown, human IgG1) VH: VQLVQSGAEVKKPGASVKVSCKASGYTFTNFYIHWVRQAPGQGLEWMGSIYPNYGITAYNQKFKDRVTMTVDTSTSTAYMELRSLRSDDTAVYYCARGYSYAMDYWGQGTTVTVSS VL: DIQMTQSPSSVSASVGDRVTITCSASQGISGDLNWYQQKPGKAPKLLIYHTSQLHSDVPSRFSGSGSGTDFTLTISSLQPEDFATYYCQGYSKDTLTFGGGTKLEIK
unit of measure: s⁻¹
koff: 0.00028
//
binder: BBJ602 (antibody, human IgG1, V domains shown, human IgG1) VH: VQLVQSGAEVKKPGASVKVSCKASGYTFTNFYIHWVRQAPGQGLEWMGSIYPNYGITAYNQKFKDRVTMTVDTSTSTAYMELRSLRSDDTAVYYCARGYSYGMDYWGQGTTVTVSS VL: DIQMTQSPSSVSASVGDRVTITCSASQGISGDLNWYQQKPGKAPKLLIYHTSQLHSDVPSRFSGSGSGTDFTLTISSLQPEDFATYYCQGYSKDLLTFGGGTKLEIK
unit of measure: s⁻¹
koff: 0.0278
//
binder: ACH836 (antibody, human IgG1, V domains shown, human IgG1) VH: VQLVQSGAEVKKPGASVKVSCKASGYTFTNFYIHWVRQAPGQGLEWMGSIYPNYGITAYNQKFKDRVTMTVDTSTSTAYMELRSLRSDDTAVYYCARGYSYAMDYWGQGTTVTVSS VL: DIQMTQSPSSVSASVGDRVTITCSASQGASGDLNWYQQKPGKAPKLLIYHTSQLHSDVPSRFSGSGSGTDFTLTISSLQPEDFATYYCQGYSKDLLTFGGGTKLEIK
unit of measure: s⁻¹
koff: 0.000117
//
binder: KOB135 (antibody, human IgG1, V domains shown, human IgG1) VH: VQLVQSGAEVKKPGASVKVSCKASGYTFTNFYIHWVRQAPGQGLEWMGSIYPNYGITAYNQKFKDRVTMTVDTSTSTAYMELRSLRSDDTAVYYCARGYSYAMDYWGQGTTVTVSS VL: DIQMTQSPSSVSASVGDRVTITCSASQGISGDLNWYQQKPGKAPKLLIYHTSQQHSDVPSRFSGSGSGTDFTLTISSLQPEDFATYYCQGYSKDLLTFGGGTKLEIK
unit of measure: s⁻¹
koff: 0.000166
//
binder: WAZ460 (antibody, human IgG1, V domains shown, human IgG1) VH: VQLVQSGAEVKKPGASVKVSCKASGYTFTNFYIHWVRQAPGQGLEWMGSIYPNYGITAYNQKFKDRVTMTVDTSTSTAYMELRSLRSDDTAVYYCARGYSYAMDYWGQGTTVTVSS VL: DIQMTQSPSSVSASVGDRVTITCRASQGISGDLNWYQQKPGKAPKLLIYHTSQLHSDVPSRFSGSGSGTDFTLTISSLQPEDFATYYCQGYSKDLLTFGGGTKLEIK
unit of measure: s⁻¹
koff: 0.000202

Look at this binder and give its reported koff. NRT742 (antibody, human IgG1, V domains shown, human IgG1) VH: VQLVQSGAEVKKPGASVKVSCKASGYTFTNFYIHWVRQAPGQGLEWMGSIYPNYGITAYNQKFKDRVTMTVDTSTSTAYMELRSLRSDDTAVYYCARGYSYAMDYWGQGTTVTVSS VL: DIQMTQSPSSVSASVGDRVTITCSASQGISGDLNWYQQKPGKAPKLLIYHASQLHSDVPSRFSGSGSGTDFTLTISSLQPEDFATYYCQGYSKDLLTFGGGTKLEIK
0.000406

Look at this binder and give its reported koff. RZL961 (antibody, human IgG1, V domains shown, human IgG1) VH: VQLVQSGAEVKKPGASVKVSCKASGYTFTNFYIHWVRQAPGQGLEWMGSIYPQYGITAYNQKFKDRVTMTVDTSTSTAYMELRSLRSDDTAVYYCARGYSYAMDYWGQGTTVTVSS VL: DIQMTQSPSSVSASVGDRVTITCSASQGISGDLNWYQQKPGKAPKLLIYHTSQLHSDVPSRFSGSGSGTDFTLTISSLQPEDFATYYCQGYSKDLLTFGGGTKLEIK
0.000536
